- PROTOCOL_TEXT: Pharmacokinetic profiles of patients on the extended dosing regimen (plasma, LCMS/MS, day 15)
- Type: in vivo
- EXPERIMENTAL_CONTEXT: human, plasma, po, 150 mg, 150 mg QD oral, day 15, N=3; harmonic mean and pseudo standard deviation; read-out: t1/2 (converted)
- Description: A total of 43 patients were enrolled in the study. […] In evaluating the pharmacokinetic profiles of the patients, plasma samples were collected pre-dose and over 6 hours following dosing on day 15. Plasma concentrations of N-[2-[(4-hydroxyphenyl)amino]-3-pyridyl]-4-methoxybenzenesulfonamide were determined by a validated LCMS/MS assay. […]
MEASUREMENT_NAME: half-life (h)
Lab book: enter the figure in h, no units written.

Consider COc1ccc(S(=O)(=O)Nc2cccnc2Nc2ccc(O)cc2)cc1 . Its measured half-life is 8.5

----------
- PROTOCOL_TEXT: Pharmacokinetic profiles of patients on the extended dosing regimen (plasma, LCMS/MS, day 15)
- Type: in vivo
- EXPERIMENTAL_CONTEXT: human, plasma, po, 150 mg, 150 mg QD oral, day 15, N=3; AUC0-24
MEASUREMENT_NAME: AUC (ng·h/mL)
Lab book: enter the figure in ng·h/mL, no units written.

Consider COc1ccc(S(=O)(=O)Nc2cccnc2Nc2ccc(O)cc2)cc1 . Its measured AUC is 55100

----------
- PROTOCOL_TEXT: Pharmacokinetic profiles of patients on the extended dosing regimen (plasma, LCMS/MS, day 15)
- Format: in vivo
- EXPERIMENTAL_CONTEXT: human, plasma, po, 25 mg, 25 mg BID oral, day 15, N=2; AUC0-12
- Method: A total of 43 patients were enrolled in the study. […] In evaluating the pharmacokinetic profiles of the patients, plasma samples were collected pre-dose and over 6 hours following dosing on day 15. Plasma concentrations of N-[2-[(4-hydroxyphenyl)amino]-3-pyridyl]-4-methoxybenzenesulfonamide were determined by a validated LCMS/MS assay. […]
MEASUREMENT_NAME: AUC (µg·h/mL)
Lab book: enter the figure in µg·h/mL, no units written.

Consider COc1ccc(S(=O)(=O)Nc2cccnc2Nc2ccc(O)cc2)cc1 . Its measured AUC is 9.1

Each recorded value in this set is attributed to patent US20040242650A1.
